Test system: HCC 2998
Test: NCI tumour cell line growth inhibition, 48 h
Calls of active or inactive are those of the source. Rule as the data show it: active = GI50 up to about 1.1 µM and inactive = higher.
Log the outcome using a class from t (active), f (inactive)

> print(dat)
                                 compound  group
1  COc1ccc(-c2cc(-c3ccccc3)nc(N)n2)c(O)c1      f

Q: Could you check what this test reported for CCN(CC)CC(=O)N1CCc2c([nH]c3ccccc23)C1c1cccnc1 (centres undefined) ?
A: f

Q: Could you check what this test reported for Cc1ccc2c(c1)-c1c3c(nn1-c1ccccc1)-c1ccccc1SC3O2 (centres undefined) ?
A: f

---

Tested on: HT-29
Test: NCI tumour cell line growth inhibition, 48 h
The source made the active and inactive calls. Rule as the data show it: active = GI50 up to about 1.1 µM and inactive = higher.
Quantity Kind: GI50

> print(dat)
                                   compound  measured.target  quantity.kind               result
1    CCCc1c(O)nc(Nc2nc3ccccc3[nH]2)[nH]c1=O            HT-29           GI50  > 100 µM (inactive)
2  CC1=C(C(=O)OC23CC4CC(CC(C4)C2)C3)C(c2ccccc2OC(F)F)C(C(=O)OC23CC4CC(CC(C4)C2)C3)=C(C)N1 (centres undefined)            HT-29           GI50  > 100 µM (inactive)
3  COc1ccc(N2C(=O)C(N3C(=O)C=CC3=O)C2C=O)cc1 (centres undefined)            HT-29           GI50  > 100 µM (inactive)
4  O=C(CCN1CCOCC1)C(=Cc1ccccc1)C(=O)CCN1CCOCC1            HT-29           GI50   2.98 µM (inactive)

Consider the following items and state reported GI50 for each.
1. C/C=C/CC(S(=O)(=O)c1ccccc1)S(=O)(=O)c1ccccc1
2. COC(=O)C(Cc1c[nH]c2ccccc12)NC(=O)C(Cc1c[nH]cn1)NC(=O)C1CCC(=O)N1C(=O)OCc1ccccc1 (centres undefined)
3. Cc1cc(C2CC(O)C(CO)O2)c(F)cc1F (centres undefined)
4. COC12C=CC(CC1)C1C(=O)c3c(C)c(C)n(C)c3C(=O)C12 (centres undefined)
5. O=C(C#CP(=O)(O)c1ccccc1)c1ccccc1
6. NNC1=NC(=O)NC(=O)C1

A:
1: > 100 µM (inactive); 2: > 100 µM (inactive); 3: > 100 µM (inactive); 4: > 100 µM (inactive); 5: > 100 µM (inactive); 6: > 100 µM (inactive)

Consider the following items and state reported GI50 for each.
1. CC1(C)OC[C@@H](O)[C@H](C#N)CO1
2. CN1C(c2ccccc2)CC(=Nc2ccccc2)CC1c1ccccc1 (centres undefined)
3. O=C(CCN(C(=O)O)S(=O)(=O)c1ccc(NC(=O)c2ccccc2)cc1)Nc1ccccc1
4. CC(=O)n1nc(-c2nc3ccccc3nc2Cl)cc1Cl

A:
> 100 µM (inactive)
8.67 µM (inactive)
> 94.2 µM (inactive)
23 µM (inactive)

---

Notes on GI50 obtained with HCT-15.
One number for each entry, in µM.

> print(dat)
                                   compound  measured.target  quantitative.result
1  CC(O)(c1ccccc1)c1nccc2ccccc12 (centres undefined)           HCT-15                   53

Continue with the next compound.
Q: Please give the documented GI50 of CCC/C(=N\NC(=S)N1CC2CCC(CC2)C1)c1ccccn1
A: 0.0853

---

Record form. Attribute: GI50. Fill in for each entry.
Tested on: MOLT-4
Test: NCI tumour cell line growth inhibition, 48 h
Active and inactive are the calls of the source. Cut-off read from the data, not from the text of the source: active = GI50 up to about 1.1 µM and inactive = higher.

Here's what some known entries look like.
> print(dat)
                                   compound               result
1  C=C1CCC2C(C)(CO)C(O)CCC2(C)C1CC(O)/C(=C/CO)C(=O)O (stereo not drawn)  > 100 µM (inactive)
2              CN(CCc1ccc(Br)cc1)CCN1CCCCC1     31 µM (inactive)

Continue with the next compound.
Q: Please give the documented GI50 of C=C(CCOC)CCC1CCCCC(=C)[C@H]1OC(C)=O (stereo partly drawn)
A: 59.7 µM (inactive)

---

Record form. Attribute: GI50. Fill in for each entry.
System: SN12C
Test: NCI tumour cell line growth inhibition, 48 h
Calls of active or inactive are those of the source. Cut-off read from the data, not from the text of the source: active = GI50 up to about 1.1 µM and inactive = higher.

Here's what some known entries look like.
> print(dat)
                                smiles.data               result
1  O=C1CCc2cc3c(cc21)CC1(Cc2cc4c(cc2C1)CCCC4)C3  > 100 µM (inactive)
2  CCOC(=O)CNC(=O)CNC(=O)CNC(=O)CNNc1c(OCc2ccccc2)c(=O)c1=O  > 100 µM (inactive)

Continue with the next molecule.
Q: # lookup: SN12C GI50, key = Cc1cc(C)n2nc3nc(N)c(C#N)c(-c4ccccc4)c3c2n1
A: > 100 µM (inactive)

---

Record form. Attribute: GI50. Fill in for each entry.
System: A549
Test: NCI tumour cell line growth inhibition, 48 h
Calls of active or inactive are those of the source. Cut-off read from the data, not from the text of the source: active = GI50 up to about 1.1 µM and inactive = higher.

> print(dat)
                                   molecule  quantity.kind               result
1                                NNc1nncn1N           GI50  > 100 µM (inactive)
2     C/C(=N\NC(N)=S)c1ccc2c(c1)Sc1ccccc1O2           GI50    2.5 µM (inactive)
3  C=C(CCOC)CCC1CCCCC(=C)[C@H]1OC(C)=O (some centres undefined)           GI50  > 100 µM (inactive)

Continue with the next molecule.
Q: Please give the documented GI50 of CCOc1ccccc1NC(=O)CC1Sc2ccccc2NC1=O (centres undefined)
A: 82.2 µM (inactive)

---

Tested on: NCI-H226
Test: NCI tumour cell line growth inhibition, 48 h
The source made the active and inactive calls. No stated cut-off is given here; in the data, active = GI50 up to about 1.1 µM and inactive = higher. Residues, ends and D or L forms follow the SMILES beside them.
Quantity Kind: GI50

Here's what some known entries look like.
Molecule	Measured Target	GI50
CCC(C)C(NC(=O)C(CC(C)C)NC(=O)CNC(=O)C(NC(=O)C1CCCN1C(=O)C(CC(C)C)NC(=O)C(N)Cc1ccccc1)C(C)CC)C(=O)NC(CC(C)C)C(N)=O (stereo not given) (H-FLPIGLIL-NH2; configuration not given here)	NCI-H226	> 75 µM (inactive)
CCCN(CCC)C(=O)C(=O)c1c(N)[nH]n(-c2ccccc2)c1=O	NCI-H226	> 100 µM (inactive)

Consider the following items and state reported GI50 for each.
1. CCn1c2ccccc2n2c(=O)c3c(c(C#N)c12)CCCC3
2. NC1=NC(c2ccc(Cl)cc2)N(c2ccc(S(N)(=O)=O)cc2)C(N)=N1 (stereo not given)
3. O=C1C(=O)N(c2ccc(Cl)cc2)C(=O)C(=O)C1c1nc2ccccc2o1

A:
> 100 µM (inactive)
> 100 µM (inactive)
> 100 µM (inactive)

---

Record form. Attribute: GI50. Fill in for each entry.
Test system: HCT-15
Test: NCI tumour cell line growth inhibition, 48 h

> print(dat)
                           molecule   result
1  COC(CN(C)C(=S)Nc1cccc2ccccc12)OC  > 10 µM

Consider the following items and state reported GI50 for each.
1. CCCN(CCC)C(=O)C(=O)c1c(N)[nH]n(-c2ccccc2)c1=O
2. O=C(O)c1cc2c(ncc3c(=O)n(-c4ccccc4)[nH]c32)s1
3. C=C1CCC2C(C)(CO)C(O)CCC2(C)C1CC(O)/C(=C/CO)C(=O)O (centres undefined)

A:
1: > 100 µM; 2: > 100 µM; 3: > 100 µM

---

Record form. Attribute: GI50. Fill in for each entry.
Test system: SW-620
Test: NCI tumour cell line growth inhibition, 48 h
Activity calls are given as the source filed them. No stated cut-off is given here; in the data, active = GI50 up to about 1.1 µM and inactive = higher.

> print(dat)
                                 compound  measured.target              result
1  N#CSCc1cccc(Nc2cc(=O)[nH]c(=O)[nH]2)c1           SW-620  55.6 µM (inactive)

Consider the following items and state reported GI50 for each.
1. COC1(OC)C2(Cl)C(Cl)=C(Cl)C1(Cl)C1c3ccc(C(C)=O)c4cccc(c34)C12 (stereo not drawn)
2. O=C1CCC2(c3ccccc3)Nc3ncccc3N12 (stereo not drawn)
3. CN/N=C(/c1nc2ccc([N+](=O)[O-])cc2nc1O)C(O)c1ccc(C(O)/C(=N\NC)c2nc3ccc([N+](=O)[O-])cc3nc2O)cc1 (stereo not drawn)
4. C=CCN1C(=O)CC2[C@@H]3CCc4cc(O)ccc4C3CC[C@]2(C)C1=O (stereo partly drawn)
5. O=C1NN(Cc2ccccc2)C(=O)N2CCC[C@@H]12
6. CC(C)(C)c1cc(C(=O)/C=C/c2cc[nH]n2)cc(C(C)(C)C)c1O
7. COC12C=CC(CC1)C1C(=O)c3c(C)c(C)n(C)c3C(=O)C12 (stereo not drawn)
8. CC/C(C)=C1\CCC(CN2CCOCC2)C1=O (stereo not drawn)

A:
["> 53.6 µM (inactive)", "> 100 µM (inactive)", "82.8 µM (inactive)", "> 10 µM (inactive)", "> 100 µM (inactive)", "2.33 µM (inactive)", "> 100 µM (inactive)", "15.1 µM (inactive)"]

Consider the following items and state reported GI50 for each.
1. N#CCc1cccc(CC#N)c1Br
2. NNC1=NC(=O)NC(=O)C1
3. C(=N\c1cnc2ccccc2c1)/c1ccc2ccccc2n1
4. CC(C)(C)C1CCC2c3c([nH]c4ccccc34)C3C(=O)N(c4ccccc4Cl)C(=O)C3C2C1 (stereo not drawn)
5. O=c1oc2ccc(Cl)cc2cc1C1=CSC2=NCCN12

A:
1: > 100 µM (inactive); 2: > 100 µM (inactive); 3: 64.1 µM (inactive); 4: 7.94 µM (inactive); 5: 24.6 µM (inactive)

Consider the following items and state reported GI50 for each.
1. NNc1nncn1N
2. Cc1cc(Cl)ccc1NC(=O)CC1SC(Nc2ccccc2Cl)=NC1=O (stereo not drawn)
3. C/C(=N\NC(N)=S)c1ccc2c(c1)Sc1ccccc1O2
4. CC1=C(C(=O)Nc2ccccc2)C(c2ccccc2Cl)C(C(=O)Nc2ccccc2)=C(C)N1

A:
1. > 57.1 µM (inactive)
2. 37.2 µM (inactive)
3. 2.56 µM (inactive)
4. 30.7 µM (inactive)
